B1: library; a variant is named by its letters at N, in order (parent)
chain: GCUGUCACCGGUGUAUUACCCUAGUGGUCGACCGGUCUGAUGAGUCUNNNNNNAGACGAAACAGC

variants of: B1; assay: normalized RNA/DNA level with ligand (relative to sTRSVctl = 100) (log10 (% of sTRSVctl)); ligand: hypoxanthine (xanthine aptamer); higher = less ribozyme self-cleavage, higher mRNA level; settings: ligand concentration (+) RNA-Seq: 5 mM, HEK293T, reporter: mCherry (pCS4076), ligand present: yes
readout label: normalized RNA/DNA level with ligand (log10)
// return a plain number; no unit text

Consider the following illustrative entries.
The measured normalized RNA/DNA level with ligand (log10) associated with "CUUCAA" reads 1.96

The measured normalized RNA/DNA level with ligand (log10) associated with "AACCUA" reads 1.93

The measured normalized RNA/DNA level with ligand (log10) associated with "GAGCGU" reads 1.91

The measured normalized RNA/DNA level with ligand (log10) associated with "AUCGAU" reads 1.9

The measured normalized RNA/DNA level with ligand (log10) associated with "CCACCC" reads 1.93

The measured normalized RNA/DNA level with ligand (log10) associated with "GUUUAG" reads 1.81

Further cases:
The measured normalized RNA/DNA level with ligand (log10) associated with "GGUUGU" reads 1.94

The measured normalized RNA/DNA level with ligand (log10) associated with "AGGAAA" reads 1.87

The measured normalized RNA/DNA level with ligand (log10) associated with "GGAGCG" reads 1.93

The measured normalized RNA/DNA level with ligand (log10) associated with "AAGCAA" reads 1.9

The measured normalized RNA/DNA level with ligand (log10) associated with "CCUGCG" reads 1.98
